From: the supplement of paper PMC10567573

- procedure.summary: protein stability index of a GFP-peptide fusion (GPS, HEK-293T) (PSI 1-6); higher = more stable;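 also: 24-mer peptide tiles fused after GFP, lentivirally expressed, FACS-sorted into six equal bins by GFP/DsRed ratio, decoded by Illumina sequencing, PSI is the read-weighted mean bin number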
- run.conditions: treatment: DMSO; c terminus: a fixed tail appended
measured.endpoint: protein stability index
Give a plain numeric answer without units written out.

A selection of reference data follows.
1) FVEDQAVVETVFFLTSRTRALLRR [ZSWIM9]    2.21
2) LKLSIMSEEELTHIFGDLDSYIPL [NET1]    2.21
3) HTTIVATRHYRPPEVILELGWAQP [CLK3]    2.26
4) IPAFCELPLDDQVALLRAHAGEHL [HNF4A]    2.88
5) ITSSVFPSASLGKASSRKPFGILS [FBXO34]    2.65
6) RITKDNRRHCQACRLKRCVDIGMM [VDR]    2.42
7) GTPSPSRSRDSNSGPEEPLLEEEE [RTN2]    5.49
8) AEGAVPETQTLTGWSKGFIGMHRE [RHOBTB1]    4.09

Value of measured protein stability index for the entry PRRVCVGGKRRRDDISVDSLDFTK [PPP2R2C] : 3.79

Value of measured protein stability index for the entry LDLRVKGILSSQAEGLANGPDVLE [EHMT1] : 4.12

Value of measured protein stability index for the entry MMEEIDRFQDPAAASISDGDCDAR [FAM219A] : 5.38

Value of measured protein stability index for the entry NERKVAQLAEENERLKQEIERLTR [DDIT3] : 5.1

Value of measured protein stability index for the entry IASIADVCESMKEQLLVLVEWAKY [HNF4A] : 2.42
